pIC50 values for Lysine-specific demethylase 4A (Homo sapiens, UniProt O75164), compiled from several publications.
pIC50: −log10 of the molar value.

c1ccc2c(c1)CCCC2Cn1cnc(-c2cc(-c3nn[nH]n3)ccn2)c1 (stereo not shown) = < 5.00

State the recorded pIC50 for this entry: CC1CC1/N=C/c1ccnc(CNCC(=O)N(C)C)c1 (stereo not shown)
> 6.60

State the recorded pIC50 for this entry: CN(C)CCCCCNCc1cc(CN)ccn1
< 5.60

State the recorded pIC50 for this entry: CN(C)C(=O)CNCc1cc(CNCCF)ccn1
< 5.60

State the recorded pIC50 for this entry: CN1CCCC1CCNCc1cc(/C=N/C2CC2)ccn1 (stereo not shown)
< 5.60

State the recorded pIC50 for this entry: Cn1cnc(-c2cc(C(=O)O)ccn2)c1-c1ccc(F)cc1
6.00 to 7.00

State the recorded pIC50 for this entry: O=C(O)c1ccnc(-c2cn(Cc3ccc(F)cc3)cn2)c1
6.00 to 7.00

State the recorded pIC50 for this entry: O=C(O)c1ccnc2cc(COc3ccccc3)[nH]c12
6.00 to 7.00

State the recorded pIC50 for this entry: COCCNCc1ccnc(CNCCCN(C)Cc2ccccc2)c1
< 5.60

State the recorded pIC50 for this entry: O=C(O)c1ccnc(-c2cn(Cc3ccccc3F)cn2)c1
6.00 to 7.00
